# EXPERIMENTAL_TARGET: CDK7/Cyclin H/MAT1 trimeric complex (Homo sapiens, UniProt P50613)
# Sequence (P50613 whole entry): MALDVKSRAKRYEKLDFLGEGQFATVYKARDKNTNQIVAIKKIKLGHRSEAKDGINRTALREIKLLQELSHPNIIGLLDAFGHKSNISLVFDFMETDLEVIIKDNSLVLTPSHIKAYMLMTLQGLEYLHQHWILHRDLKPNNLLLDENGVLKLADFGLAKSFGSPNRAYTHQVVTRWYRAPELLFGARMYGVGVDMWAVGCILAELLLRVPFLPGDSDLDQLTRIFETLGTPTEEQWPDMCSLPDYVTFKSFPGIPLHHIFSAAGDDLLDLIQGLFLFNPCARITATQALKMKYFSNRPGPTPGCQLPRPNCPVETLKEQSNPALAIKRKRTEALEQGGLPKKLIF
# Sequence (P51946 whole entry partner): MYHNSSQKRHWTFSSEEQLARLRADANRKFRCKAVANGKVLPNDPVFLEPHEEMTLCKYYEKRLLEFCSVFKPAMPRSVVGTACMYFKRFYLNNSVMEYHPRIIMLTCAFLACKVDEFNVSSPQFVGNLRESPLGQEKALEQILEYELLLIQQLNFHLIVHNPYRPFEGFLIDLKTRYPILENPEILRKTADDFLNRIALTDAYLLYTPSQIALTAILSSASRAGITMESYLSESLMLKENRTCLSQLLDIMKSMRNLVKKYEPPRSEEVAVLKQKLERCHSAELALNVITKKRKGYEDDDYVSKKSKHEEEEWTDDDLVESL
# Sequence (P51948 whole entry partner): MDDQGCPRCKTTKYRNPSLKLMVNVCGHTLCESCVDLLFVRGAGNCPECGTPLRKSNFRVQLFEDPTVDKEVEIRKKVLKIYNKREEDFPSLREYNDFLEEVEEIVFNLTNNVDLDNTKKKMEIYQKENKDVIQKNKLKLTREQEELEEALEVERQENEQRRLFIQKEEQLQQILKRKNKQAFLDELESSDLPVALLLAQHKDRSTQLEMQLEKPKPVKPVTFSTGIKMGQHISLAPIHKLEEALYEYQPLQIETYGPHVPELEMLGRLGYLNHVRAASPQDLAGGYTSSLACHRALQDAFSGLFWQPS
# TEST_PROTOCOL: CDK7 kinase assay, Caliper/LabChip EZ Reader (Biortus Biosciences)
# RECORDED_CONDITIONS: CDK7/Cyclin H/MAT1 10 nM, ATP 2 mM, FAM-CDK7tide 2 μM, 30 min incubation, read-out: CDK7 Inhibition (IC50)
RECORDED_METRIC: IC50

Here's what some known entries look like.
1) C=CC(=O)N1CCN([C@H]2CCC[C@@H](Nc3ncc(Cl)c(-c4n[nH]c5ccccc45)n3)C2)CC1 [compound 388]    0.1 to 1 µM
2) CCc1cnc(N[C@@H]2CCC[C@](C)(NC(=O)c3ccc(NC(=O)/C=C/CN(C)C)cn3)C2)nc1-c1c(C)[nH]c2ccccc12 [Compound 412]    0.1 to 1 µM
3) C=CC(=O)N1CCN([C@H]2CCC[C@@H](Nc3ncc(Cl)c(-c4c[nH]c5ccc(C)cc45)n3)C2)CC1 [Compound 340]    < 0.1 µM

Let us examine a further case.
Query string: For CCc1cnc(N[C@@H]2CCC[C@](C)(NC(=O)c3ccc(NC(=O)/C=C/CN(C)C)cn3)C2)nc1-c1c[nH]c2ccccc12 [Compound 407] , what is its reported IC50?
Result string: < 0.1 µM

Reference source for all entries: patent US10106526B2
